This section lists pIC50 readings for MAGL (Mus musculus (Mouse), UniProt O35678).
pIC50: −log10 of the molar value.

Below, each entry is followed by its recorded pIC50 result.
• CC(=O)N(C)c1cnn(C(=O)N2C[C@H]3C[C@H](N(C)Cc4ccc(N5C6CCC5COC6)c(C(F)(F)F)c4)C[C@H]3C2)c1 = 6.00 to 7.00
• CC(=O)N(C)c1cnn(C(=O)N2C[C@H]3C[C@@H](N(C)Cc4ccc(Cl)cc4)C[C@H]3C2)c1 = 6.00 to 7.00
• CC(=O)N(C)c1cnn(C(=O)N2C[C@H]3C[C@@H](N(C)Cc4ccc(N5C6CCC5COC6)c(C(F)(F)F)c4)C[C@H]3C2)c1 = 6.00 to 7.00
• CC(=O)N(C)c1cnn(C(=O)N2CCC3(CCN(Cc4cccc(Cl)c4C)C3)C2)c1 (stereo not drawn) = 6.00 to 7.00
• CC(=O)N(C)c1cnn(C(=O)N2CCC3(CCN(Cc4ccc(N5CCOCC5)cc4Cl)C3)C2)c1 (stereo not drawn) = 6.00 to 7.00
• CC(=O)Nc1cnn(C(=O)N2CCN(Cc3ccc(C(F)(F)F)cc3N3C4CCC3COC4)CC2)c1 = 6.00 to 7.00
• CC(=O)N(C)c1cnn(C(=O)N2CC3CN(Cc4ccc(C(F)(F)F)c(N5CCCC5)c4)CC3C2)c1 (stereo not drawn) = ≥ 7.00
• CS(=O)(=O)Nc1cnn(C(=O)N2CCC3(CCN(Cc4cc(Cl)cc(C(F)(F)F)c4)C3)CC2)c1 = ≥ 7.00

Consider the following items and state reported pIC50 for each.
1. CC(=O)N(C)c1cnn(C(=O)N2CC3CN(Cc4ccc(F)c(Cl)c4)CC3C2)c1 (stereo not drawn)
2. CC(=O)N(C)c1cnn(C(=O)N2CC3CN(Cc4ccc(F)c(N5CCCC5)c4)CC3C2)c1 (stereo not drawn)
3. CC(=O)N(C)c1cnn(C(=O)N2CCN(Cc3ccc(C(F)(F)F)cc3N3C4CCC3COC4)CC2)c1
4. CS(=O)(=O)Nc1cnn(C(=O)N2CCN(Cc3ccc(-c4ncco4)cc3C(F)(F)F)CC2)c1
5. CC(=O)N(C)c1cnn(C(=O)N2C[C@H]3C[C@H](N(C)Cc4cccc(Cl)c4)C[C@H]3C2)c1
6. CC(=O)Nc1cnn(C(=O)N2CCN(Cc3cc(N4CCCC4)cc(C(F)(F)F)c3)CC2)c1
7. CC(=O)N(C)c1cnn(C(=O)N2CCC3(CCN(Cc4cc(Cl)ccc4C(F)(F)F)C3)C2)c1 (stereo not drawn)

Return:
6.00 to 7.00
≥ 7.00
≥ 7.00
≥ 7.00
≥ 7.00
6.00 to 7.00
≥ 7.00

Consider the following items and state reported pIC50 for each.
1. CC(=O)N(C)c1cnn(C(=O)N2CC3CN(Cc4cccc(Cl)c4C)CC3C2)c1 (stereo not drawn)
2. CC(=O)N(C)c1cnn(C(=O)N2CC3CN(Cc4ccc(Oc5ccc(Cl)cc5)cc4)CC3C2)c1 (stereo not drawn)
3. CC(=O)N(C)c1cnn(C(=O)N2CCC3(CC2)CN(Cc2ccccc2Cl)C3)c1
4. CC(=O)N(C)c1cnn(C(=O)N2CC3CN(Cc4cc(C(F)(F)F)cc(C(F)(F)F)c4)CC3C2)c1 (stereo not drawn)
5. CC(=O)N(C)c1cnn(C(=O)N2CC3CN(Cc4cccc(C)c4)CC3C2)c1 (stereo not drawn)
6. CC(=O)N(C)c1cnn(C(=O)N2CC3CN(Cc4ccc(Oc5ccccc5)cc4)CC3C2)c1 (stereo not drawn)

Return:
1: ≥ 7.00; 2: ≥ 7.00; 3: ≥ 7.00; 4: ≥ 7.00; 5: 6.00 to 7.00; 6: ≥ 7.00

Consider the following items and state reported pIC50 for each.
1. CC(=O)N(C)c1cnn(C(=O)N2CC3CN(Cc4ccc(C)cc4Cl)CC3C2)c1 (stereo not drawn)
2. CC(=O)N(C)c1cnn(C(=O)N2CCC3(CCN(Cc4ccc(C(F)(F)F)cc4)C3)C2)c1 (stereo not drawn)
3. CC(=O)N(C)c1cnn(C(=O)N2CC3CN(Cc4ccccc4F)CC3C2)c1 (stereo not drawn)
4. CN(c1cnn(C(=O)N2CCN(Cc3ccc(C(F)(F)F)cc3N3CCCC3)CC2)c1)S(C)(=O)=O
5. CC(=O)N(C)c1cnn(C(=O)N2CC3CN(Cc4cc(N5CCOCC5)cc(C(F)(F)F)c4)CC3C2)c1 (stereo not drawn)
6. CC(=O)N(C)c1cnn(C(=O)N2CCC3(CCN(Cc4ccccc4Cl)C3)C2)c1 (stereo not drawn)
7. CC(=O)N(C)c1cnn(C(=O)N2CCC3(CC2)CN(Cc2cccc(Cl)c2)C3)c1
8. CC(=O)N(C)c1cnn(C(=O)N2CCC3(CCN(Cc4cccc(C(F)(F)F)c4)C3)C2)c1 (stereo not drawn) [Example 64]

Return:
≥ 7.00
6.00 to 7.00
6.00 to 7.00
6.00 to 7.00
≥ 7.00
6.00 to 7.00
≥ 7.00
6.00 to 7.00

Enquiry: What does the record list as pIC50 for CC(=O)N(C)c1cnn(C(=O)N2CCC3(CCN(Cc4ccc(-c5ccccc5)cc4C)C3)C2)c1 (stereo not drawn) ?
Return: ≥ 7.00

src = patent US10323038B2
